Test system: P388
Test details: Cytotoxicity against P-388 leukemia cells
Assay type: functional, cell-based
Applied conditions: Mus musculus
Note that class boundaries on IC50 are lo = under 0.05 µg/mL, med = from 0.05 µg/mL up to 40 µg/mL, hi = 40 µg/mL and over

Compound | Class label
COc1cc(-c2c3c(nc4cc5c(cc24)OCO5)CCC3=O)cc(OC)c1OC | hi
COc1cc2nc3c(c(-c4cc(OC)c(OC)c(OC)c4)c2cc1OC)C(=O)OC3 | hi
COc1ccc(C2C3=C(O)OCC3=Nc3cc4c(cc32)OCO4)cc1 (centres undefined) | med
COc1cc(-c2c3c(nc4cc(OC)c(OC)c(OC)c24)COC3=O)cc(OC)c1OC | med
O=C1OCc2nc3cc4c(cc3c(-c3ccc5c(c3)OCO5)c21)OCO4 | hi
COc1cc(-c2c3c(nc4cc5c(cc24)CCC5)COC3=O)cc(OC)c1OC | hi
COc1cc2c(cc1OC)C(c1cc(OC)c(OC)c(OC)c1)C1=C(O)OCC1=N2 (centres undefined) | med
COc1cccc(-c2c3c(nc4cc5c(cc24)OCO5)COC3=O)c1 | hi
COc1cc(-c2c3c(nc4cc5c(cc24)OCO5)COC3=O)cc(OC)c1OC | hi
COc1ccc(C2c3cc4c(cc3NC3COC(=O)C32)OCO4)cc1OC (centres undefined) | lo
COc1cc([C@@H]2c3cc4c(cc3[C@H](O)[C@H]3COC(=O)[C@H]23)OCO4)cc(OC)c1OC | lo
COc1cc(-c2c3c(nc4cc5c(cc24)-c2ccccc2C5)COC3=O)cc(OC)c1OC | hi
COc1cc(C2C3=C(COC3=O)Nc3cc4c(cc32)OCO4)cc(OC)c1OC (centres undefined) | lo
OC1=C2C(=Nc3cc4c(cc3C2c2ccc3c(c2)OCO3)OCO4)CO1 (centres undefined) | lo
O=C1OCc2nc3cc4c(cc3c(-c3ccccc3)c21)OCO4 | hi
COc1ccc(-c2c3c(nc4cc5c(cc24)OCO5)COC3=O)cc1 | hi
COc1ccc(C2C3=C(O)OCC3=Nc3cc(OC)c(OC)cc32)cc1OC (centres undefined) | med
COc1cc(C2C3=C(O)OCC3=Nc3cc4c(cc32)OCCO4)cc(OC)c1OC (centres undefined) | lo
COc1cc(-c2c3c(nc4cc5c(cc24)OCCO5)COC3=O)cc(OC)c1OC | hi
COc1cc2nc3c(c(-c4ccc5c(c4)OCO5)c2cc1OC)C(=O)OC3 | med
COc1cc(C2C3=C(O)OCC3=Nc3cc4c(cc32)-c2ccccc2C4)cc(OC)c1OC (centres undefined) | med
OC1=C2C(=Nc3cc4c(cc3C2c2ccccc2)OCO4)CO1 (centres undefined) | lo

Value source: ChEMBL document CHEMBL1133388
